Field: IC50. Provide a value for each of the molecules that follow.
- Tested on: Trypanosoma cruzi
- ASSAY PROTOCOL: Antitrypanosomal activity against trypomastigote forms of Trypanosoma cruzi Tulahuen C2C4 infected in rat L6 cells after 96 hrs by photometric method
- Type: functional, organism-based
- CONDITION CONTEXT: Tulahuen C2C4, L6, 96 h
Numbers only, in µg/mL.

O=c1cc(-c2ccc(O)c(O)c2)oc2cc(O)cc(O)c12 [LUTEOLIN] : 21.4

Switching to the query record.
QUERY: What does the record list as IC50 for O=c1cc(-c2ccc(O)cc2)oc2cc(O)cc(O)c12 [APIGENIN] ?
RESULT: 21.8

====

- Tested on: Trypanosoma brucei brucei
- ASSAY PROTOCOL: Antitrypanosomal activity against Trypanosoma brucei brucei
- Format: functional, organism-based
READOUT KIND: pIC50
One number for each entry, as −log10 of the molar value.

O=CO[C@@H](CCc1ccc(O)c(O)c1)C[C@H](CCc1ccc(O)c(O)c1)O[C@@H]1O[C@H](CO)[C@@H](O)[C@H](O)[C@H]1O : 4.60
COc1ccc(CC[C@@H](C[C@H](CCc2ccc(O)c(O)c2)O[C@@H]2O[C@H](CO)[C@@H](O)[C@H](O)[C@H]2O)OC=O)cc1 : 4.60

Switching to the query record.
QUERY: What does the record list as pIC50 for OC[C@H]1O[C@@H](O[C@@H](CCc2ccc(O)c(O)c2)C[C@@H](O)CCc2ccc(O)c(O)c2)[C@H](O)[C@@H](O)[C@@H]1O ?
RESULT: 4.60

====

- System: Trypanosoma brucei
- ASSAY PROTOCOL: Antitrypanosomal activity against Trypanosoma brucei
- Type: functional, organism-based
READOUT KIND: IC50
Value and unit, in that order.

QUERY: Given the entry COc1cc(/C=C/C(=O)CC(=O)/C=C/c2ccc(O)c(OC)c2)ccc1O [CURCUMIN] , what IC50 was observed with Trypanosoma brucei?
RESULT: 3.6 µM

====

- ASSAY PROTOCOL: Cmax in Wistar rat at 50 mg/kg administered as lipid nanoparticle suspension after 2 hrs by UPLC method
- Format: ADME, organism-based
- Parameters: dose 50 mg/kg
- CONDITION CONTEXT: in vivo
READOUT KIND: Cmax (ng/mL)
Give bare numbers, in ng/mL.

QUERY: What does the record list as Cmax for CC1=CC(=O)C(C(C)C)=CC1=O ?
RESULT: 900

====

- System: Trypanosoma cruzi
- ASSAY PROTOCOL: Antitrypanosomal activity against trypomastigote forms of Trypanosoma cruzi Tulahuen C2C4 infected in rat L6 cells after 96 hrs by photometric method
- Type: functional, organism-based
- CONDITION CONTEXT: Tulahuen C2C4, L6, 96 h
READOUT KIND: IC50

Use these answered entries as a reference point.
C[C@@H]1O[C@@H](Oc2c(-c3ccc(O)c(O)c3)oc3cc(O)cc(O)c3c2=O)[C@H](O)[C@H](O)[C@H]1O [QUERCITRIN] : > 30 µg/mL
O=c1c(O)c(-c2ccc(O)c(O)c2)oc2cc(O)cc(O)c12 [QUERCETIN] : > 30 µg/mL

Switching to the query record.
QUERY: What does the record list as IC50 for O=c1c(O)c(-c2ccc(O)c(O)c2)oc2cc(O)ccc12 [FISETIN] ?
RESULT: > 30 µg/mL
